// endpoint Ki / system human cathepsin L (hCatL) (Homo sapiens)
Response body: numeric value in nM, unit text excluded.

{"entry-smiles": "CC(=O)/C=C/[C@H](CCc1ccccc1)NC(=O)[C@H](Cc1ccccc1)NC(=O)Nc1ccc(F)cc1", "endpoint-name": "Ki", "unit-of-measurement": "nM", "recorded-number": 0.1}

Briefly, Ki measured for CC(=O)/C=C/[C@H](CCc1ccccc1)NC(=O)[C@H](Cc1ccccc1)NC(=O)Nc1ccc(Cl)cc1 : 3.11

molecule CC(=O)/C=C/[C@H](CCc1ccccc1)NC(=O)[C@H](Cc1ccccc1)NC(=O)Nc1ccc(C)cc1 , Ki observed: 1.32

====

Target: human cathepsin L (hCatL) (Homo sapiens)
Sequence (P07711 114-333): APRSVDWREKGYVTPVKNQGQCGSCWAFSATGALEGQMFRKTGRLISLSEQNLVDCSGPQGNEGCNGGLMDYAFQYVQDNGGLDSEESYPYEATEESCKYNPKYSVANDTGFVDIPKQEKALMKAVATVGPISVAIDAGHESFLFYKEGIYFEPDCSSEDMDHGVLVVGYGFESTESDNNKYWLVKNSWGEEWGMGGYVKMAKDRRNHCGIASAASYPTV
Entries and their measured Ki follow.
I only need the number, in nM, no unit after it.

Below, 3 compounds whose answers are already recorded.
{"entry-smiles": "CC(=O)/C=C/[C@H](CCc1ccccc1)NC(=O)[C@H](Cc1ccccc1)NC(=O)Nc1ccccc1", "recorded-number": 0.11}
{"entry-smiles": "CC(=O)/C=C/[C@H](CCc1ccccc1)NC(=O)[C@H](Cc1ccccc1)NC(=O)Nc1c(F)cccc1F", "recorded-number": 2.14}
{"entry-smiles": "CC(=O)/C=C/[C@H](CCc1ccccc1)NC(=O)[C@H](CC(C)C)NC(=O)Nc1ccc(C)cc1", "recorded-number": 0.64}

Note: attention shifts to another entry.
Known value: human cathepsin L (hCatL) (Homo sapiens) Ki of the compound CC(=O)/C=C/[C@H](CCc1ccccc1)NC(=O)[C@H](Cc1ccccc1)NC(=O)Nc1cccc2ccccc12 equals 0.051

====

This listing pairs molecules with measured Ki.
Molecular target: rhodesain (Trypanosoma brucei rhodesiense)
Sequence (Q95PM0 entry or part of it): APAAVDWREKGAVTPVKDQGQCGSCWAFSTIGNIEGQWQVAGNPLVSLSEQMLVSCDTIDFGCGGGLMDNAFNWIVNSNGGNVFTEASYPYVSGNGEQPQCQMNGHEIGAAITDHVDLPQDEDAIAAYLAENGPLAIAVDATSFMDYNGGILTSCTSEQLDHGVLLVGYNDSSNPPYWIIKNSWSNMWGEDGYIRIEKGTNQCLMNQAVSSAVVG
Experiment: Rhodesain fluorogenic enzyme assay (Cbz-Phe-Arg-AMC)
Type: biochemical
Conditions: dissociation constant of noncovalent E·I complex; corrected to zero substrate concentration
Give just the number in nM; leave the unit off.

{"entry-smiles": "CC(=O)/C=C/[C@H](CCc1ccccc1)NC(=O)[C@H](Cc1ccccc1)NC(=O)Nc1ccc(Cl)cc1C", "endpoint-name": "Ki", "recorded-number": 0.51}
{"entry-smiles": "CC(=O)/C=C/[C@H](CCc1ccccc1)NC(=O)[C@H](Cc1ccccc1)NC(=O)Nc1ccc(Cl)cc1", "endpoint-name": "Ki", "recorded-number": 0.78}
{"entry-smiles": "CC(=O)/C=C/[C@H](CCc1ccccc1)NC(=O)[C@H](CC(C)C)NC(=O)Nc1ccc(C)cc1", "endpoint-name": "Ki", "recorded-number": 0.42}

Recorded Ki (molecule CC(=O)/C=C/[C@H](CCc1ccccc1)NC(=O)[C@H](Cc1ccccc1)NC(=O)Nc1ccc(F)cc1 ): 0.85

// Ki value for CC(=O)/C=C/[C@H](CCc1ccccc1)NC(=O)[C@H](Cc1ccccc1)NC(=O)Nc1ccc(Cl)cc1C(F)(F)F : 1.04

// Ki value for CC(=O)/C=C/[C@H](CCc1ccccc1)NC(=O)[C@H](Cc1ccccc1)NC(=O)Nc1c(F)cccc1F : 1.13

Lab book: Ki of CC(=O)/C=C/[C@H](CCc1ccccc1)NC(=O)[C@H](Cc1ccccc1)NC(=O)Nc1cccc2ccccc12 noted as 2.51

Record COc1ccc(NC(=O)N[C@@H](Cc2ccccc2)C(=O)N[C@H](/C=C/C(C)=O)CCc2ccccc2)cc1 , field Ki: 1.05

Memo: CC(=O)/C=C/[C@H](CCc1ccccc1)NC(=O)[C@H](Cc1ccccc1)NC(=O)Nc1ccc(C)cc1 , reported Ki: 0.51

Record summary for CC(=O)/C=C/[C@H](CCc1ccccc1)NC(=O)[C@H](Cc1ccccc1)NC(=O)Nc1ccccc1 : reported Ki = 0.15

The recorded Ki for CC(=O)/C=C/[C@H](CCc1ccccc1)NC(=O)[C@H](CC(C)C)NC(=O)Nc1ccc(Cl)cc1C is 0.93
